pIC50: −log10 of the molar value.
Consider the following pIC50 data for Prostaglandin G/H synthase 2 (Homo sapiens), collected from several reports.
READOUT_KIND: pIC50

>>> numeric_value("CCC(=CCN1Cc2cc(Cl)cc3nc(S)n(c23)CC1C)CC (stereo not given)")
7.00
>>> numeric_value("C=C1CC[C@@H]2[C@H](CC2(C)C)C(=C)CC[C@H]1O")
7.06
>>> numeric_value("CC1Cn2c(S)nc3cc(Cl)cc(c32)CN1CC1CCC1 (stereo not given)")
7.00
>>> numeric_value("COc1ccc(-c2nc(N3N=C(c4ccc(F)cc4)CCC3=O)n(C)c(=O)c2C#N)cc1")
5.85
>>> numeric_value("Cc1ccc(Cl)c(Nc2ccccc2C(=O)NCC(=O)O)c1Cl")
6.40
